assay-text: Toxicity liver stage against HepG2, at 10uM
Format: cell-based
Parameters: test concentration 10 uM, cell line HepG2-A16-CD81EGFP
cond: human, HepG2-A16-CD81EGFP cells; read-out: INHIBITION
property-label: cytotoxicity at 10 µM
Param answer (str): number followed by unit.

Name the recorded cytotoxicity at 10 µM for `Cc1ccc(-n2cc(CN3CCN(C)[C@@H]4CS(=O)(=O)C[C@@H]43)cn2)cc1` .
-8.67%

Name the recorded cytotoxicity at 10 µM for `CN(C)C(=O)c1nn(C)c2c1CN(Cc1cccs1)C2` .
4.9%

Name the recorded cytotoxicity at 10 µM for `Cc1nc(NC(=O)OC(C)(C)C)sc1C(=O)O` .
7.89%

Continuing:
Name the recorded cytotoxicity at 10 µM for `CC(C)(C)C(=O)NCCc1cc(N2CCOCC2)nc(NC2CC2)n1` .
6.68%
